biological target: human APJ receptor (Homo sapiens (Human)); test: biochemical; format: biochemical; settings: read-out: Activity hAPJ SPA EC50 IP
Sequence (P35414 whole entry): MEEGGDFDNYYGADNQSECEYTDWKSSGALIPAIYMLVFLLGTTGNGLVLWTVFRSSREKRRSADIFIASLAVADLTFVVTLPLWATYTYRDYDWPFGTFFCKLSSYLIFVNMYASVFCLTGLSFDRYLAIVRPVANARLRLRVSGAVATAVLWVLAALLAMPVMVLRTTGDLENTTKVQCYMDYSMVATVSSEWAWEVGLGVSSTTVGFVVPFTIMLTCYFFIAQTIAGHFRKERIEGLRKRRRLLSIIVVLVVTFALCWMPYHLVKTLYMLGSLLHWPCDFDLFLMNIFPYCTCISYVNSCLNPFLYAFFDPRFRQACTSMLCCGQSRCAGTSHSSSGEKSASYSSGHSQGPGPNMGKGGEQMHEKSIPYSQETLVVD
EC50 strictly under 7 nM means yes (1); at 7 nM or over means no (0).

# example entries with known answers
For this molecule, is EC50 lower than 7 nM? COc1cccc(OC)c1-n1c(COC(C)C)nnc1NS(=O)(=O)[C@@H](C)[C@H](OC)c1ncc(Cl)cn1
yes (1)

Please check: EC50 for COCc1nnc(NS(=O)(=O)[C@@H](C)[C@H](C)c2ncc(Cl)cn2)n1-c1c(OC)cccc1OC , strictly under 7 nM or not?
no (0)

Please indicate whether the reported EC50 of COc1cccc(OC)c1-n1c(CO)nnc1NS(=O)(=O)[C@@H](C)[C@H](OC)c1ncc(Cl)cn1 is strictly below 7 nM.
no (0)

Dear colleague, could you confirm whether EC50 of COCc1nnc(NS(=O)(=O)[C@@H](C)[C@H](OC)c2ncc(Cl)cn2)n1-c1c(OC)cccc1OC falls below 7 nM? Thanks.
yes (1)

hey, is EC50 for COCc1nnc(NS(=O)(=O)[C@@H](C)[C@@H](OC(C)C)c2ncc(F)cn2)n1-c1c(OC)cccc1OC lower than 7 nM or not?
yes (1)

Is EC50 strictly under 7 nM for the entry COCc1nnc(NS(=O)(=O)[C@@H](C)[C@H](OC)c2ccc(Cl)cn2)n1-c1c(OC)cccc1OC ?
yes (1)

Next:
Record COCCOCc1nnc(NS(=O)(=O)[C@@H](C)[C@H](C)c2ncc(Cl)cn2)n1-c1c(OC)cccc1OC : is its EC50 strictly below 7 nM?
no (0)

Find out if reported EC50 for COCc1nnc(NS(=O)(=O)[C@@H](C)[C@H](OC)c2ncc(C)cn2)n1-c1c(OC)cccc1OC is less than 7 nM
no (0)

For this molecule, is EC50 lower than 7 nM? COCc1nnc(NS(=O)(=O)[C@@H](C)[C@H](C)c2ncc(F)cn2)n1-c1c(OC)cccc1OC
no (0)

Please check: EC50 for COCc1nnc(NS(=O)(=O)[C@@H](C)[C@H](C)c2ncc(C)cn2)n1-c1c(OC)cccc1OC , strictly under 7 nM or not?
yes (1)

Is 7 nM strictly greater than the molecule's reported EC50? molecule: CCCCc1nnc(NS(=O)(=O)[C@@H](C)[C@H](OC)c2ncc(Cl)cn2)n1-c1c(OC)cccc1OC
yes (1)
